molecular target: GCGR extracellular domain (human, UniProt P47871); assay: SPR
Sequence (P47871 26-477): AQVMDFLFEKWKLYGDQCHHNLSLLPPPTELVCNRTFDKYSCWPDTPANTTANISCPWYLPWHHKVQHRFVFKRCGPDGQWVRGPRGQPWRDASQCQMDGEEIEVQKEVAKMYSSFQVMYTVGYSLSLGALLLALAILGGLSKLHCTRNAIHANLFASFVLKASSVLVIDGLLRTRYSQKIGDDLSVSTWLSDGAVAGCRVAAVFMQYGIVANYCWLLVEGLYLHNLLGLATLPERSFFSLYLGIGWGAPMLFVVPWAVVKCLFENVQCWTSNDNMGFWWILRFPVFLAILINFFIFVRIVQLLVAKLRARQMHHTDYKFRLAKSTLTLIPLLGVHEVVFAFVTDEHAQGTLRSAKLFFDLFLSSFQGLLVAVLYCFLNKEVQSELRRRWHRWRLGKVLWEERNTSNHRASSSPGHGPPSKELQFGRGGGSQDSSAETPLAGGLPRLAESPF
quantity_measured: pKd
pKd is a log-scale quantity: -log10 of the concentration expressed in molar.

Name the recorded pKd for VH W100aL (antibody, V domains shown) VH: EVQLVESGGGLVQPGGSLRLSCAASGFNIYYNYIHWVRQAPGKGLEWVAEFSPYSGSTYYADSVKGRFTISADTSKNTAYLQMNSLRAEDTAVYYCARSAAIVDLYDYFKGFDYWGQGTLVTVSS VL: DIQMTQSPSSLSASVGDRVTITCRASQSVSSAVAWYQQKPGKAPKLLIYSASSLYSGVPSRFSGSRSGTDFTLTISSLQPEDFATYYCQQYGSYLYTFGQGTKVEIK .
8.28

Name the recorded pKd for VL Y91H (antibody, V domains shown) VH: EVQLVESGGGLVQPGGSLRLSCAASGFNIYYNYIHWVRQAPGKGLEWVAEFSPYSGSTYYADSVKGRFTISADTSKNTAYLQMNSLRAEDTAVYYCARSAAIVDWYDYFKGFDYWGQGTLVTVSS VL: DIQMTQSPSSLSASVGDRVTITCRASQSVSSAVAWYQQKPGKAPKLLIYSASSLYSGVPSRFSGSRSGTDFTLTISSLQPEDFATYYCQQHGSYLYTFGQGTKVEIK .
8.55
